Target: PPAR Alpha (Homo sapiens, UniProt Q07869)
Sequence (Q07869 whole entry): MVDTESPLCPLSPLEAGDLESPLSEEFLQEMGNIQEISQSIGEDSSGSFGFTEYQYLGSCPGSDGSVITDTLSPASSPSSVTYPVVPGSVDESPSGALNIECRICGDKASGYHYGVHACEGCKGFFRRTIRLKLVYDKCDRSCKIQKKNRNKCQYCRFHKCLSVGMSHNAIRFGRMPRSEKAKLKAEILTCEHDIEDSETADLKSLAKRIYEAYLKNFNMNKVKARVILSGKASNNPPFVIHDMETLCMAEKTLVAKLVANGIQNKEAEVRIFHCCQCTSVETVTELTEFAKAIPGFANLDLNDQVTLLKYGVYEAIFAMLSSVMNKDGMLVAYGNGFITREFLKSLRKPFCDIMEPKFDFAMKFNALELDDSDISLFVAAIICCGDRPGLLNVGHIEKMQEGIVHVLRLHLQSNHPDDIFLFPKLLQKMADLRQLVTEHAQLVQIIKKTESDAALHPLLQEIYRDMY
Test: PathHunter NHR protein interaction / nuclear translocation agonist test, PPAR Alpha
Assay type: cell-based
Settings: agonist mode; read-out: PPAR Alpha EC50
QUANTITY_KIND: EC50

Previously resolved entries follow.
COMPOUND	EC50
CSc1ccc(C(=O)C2CN(C(C)=O)CC2c2cc(C)c(OC(C)(C)C(=O)O)c(C)c2)cc1 (single isomer, unassigned)	> 250 nM
CSc1ccc(C(=O)C2CN(C(=O)Oc3cccc(Cl)c3)CC2c2cc(C)c(OC(C)(C)C(=O)O)c(C)c2)cc1 (single isomer, unassigned)	< 100 nM
COC(=O)N1CC(Cc2ccc(SC)cc2)C(c2cc(C)c(OC(C)(C)C(=O)O)c(C)c2)C1 (single isomer, unassigned) [Compound 23]	> 250 nM
Cc1cc(CCC2CN(C(=O)Oc3ccccc3)CC2C(=O)c2ccc(Cl)cc2)cc(C)c1OC(C)(C)C(=O)O (single isomer, unassigned) [Compound 66]	< 100 nM

Give me EC50 for each of these compounds, listed below.
1. CSc1ccc(C(=O)[C@@H]2CN(C(=O)Oc3ccccc3)C[C@H]2CCc2cc(C)c(OC(C)(C)C(=O)O)c(C)c2)cc1 (single isomer, unassigned) [Compound 51]
2. CSc1ccc(C(=O)C2CN(C(=O)Oc3ccc(Cl)cc3)CC2c2cccc(OC(C)(C)C(=O)O)c2)cc1 (single isomer, unassigned) [Compound 34]

Response:
1. < 100 nM
2. < 100 nM

* * *

Please provide measured pEC50 for the entries that follow.
Target: UniProt P37231
Experiment: PathHunter NHR protein interaction / nuclear translocation agonist test, PPAR Gamma
Type: cell-based
Conditions: agonist mode; read-out: PPAR Gamma EC50
pEC50: −log10 of the molar value.

Previously resolved entries follow.
> print(dat)
                                   compound  result
1  Cc1cc(CC[C@H]2CN(C(=O)Oc3ccccc3)C[C@@H]2C(=O)c2ccc([S+](C)[O-])cc2)cc(C)c1OC(C)(C)C(=O)O (mixture of isomers)  < 6.60
2  CSc1ccc(C(=O)C2CN(C(=O)Oc3ccccc3)CC2Cc2ccc(OC(C)(C)C(=O)O)c(C)c2)cc1 (single isomer, unassigned)  < 6.60
3  CSc1ccc(C(=O)C2CN(C(=O)Oc3ccc(Br)cc3)CC2c2cc(C)c(OC(C)(C)C(=O)O)c(C)c2)cc1 (centres unmarked)  < 6.60

Give me pEC50 for each of these compounds, listed below.
1. Cc1cc(CCC2CN(C(=O)Oc3ccccc3)CC2C(=O)c2ccc(Cl)cc2)cc(C)c1OC(C)(C)C(=O)O (single isomer, unassigned) [Compound 66]
2. Cc1cc(CC2CN(C(=O)Oc3ccccc3)CC2C(=O)c2ccc(F)cc2)cc(C)c1OC(C)(C)C(=O)O (single isomer, unassigned)

Response:
["6.70 to 6.82", "6.70 to 6.82"]

* * *

Biological target: PPAR Gamma (Homo sapiens, UniProt P37231)
Sequence (P37231 whole entry): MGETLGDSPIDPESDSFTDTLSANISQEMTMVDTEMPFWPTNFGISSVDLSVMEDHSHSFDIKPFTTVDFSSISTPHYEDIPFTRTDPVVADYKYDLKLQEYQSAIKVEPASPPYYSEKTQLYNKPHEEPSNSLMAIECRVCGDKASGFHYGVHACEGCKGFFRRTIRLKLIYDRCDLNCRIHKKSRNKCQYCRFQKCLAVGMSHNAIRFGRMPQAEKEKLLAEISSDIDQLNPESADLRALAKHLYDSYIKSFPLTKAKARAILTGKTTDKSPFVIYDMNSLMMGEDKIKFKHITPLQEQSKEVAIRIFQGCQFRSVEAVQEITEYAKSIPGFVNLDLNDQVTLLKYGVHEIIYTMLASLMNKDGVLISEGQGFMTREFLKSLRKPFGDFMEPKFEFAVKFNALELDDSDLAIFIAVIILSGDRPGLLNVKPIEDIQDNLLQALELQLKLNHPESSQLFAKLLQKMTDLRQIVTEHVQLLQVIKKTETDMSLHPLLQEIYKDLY
Test: PathHunter NHR protein interaction / nuclear translocation agonist test, PPAR Gamma
Format: cell-based
Conditions: read-out: PPAR Gamma Maximum Activation Response %
QUANTITY_KIND: Emax

> print(dat)
                                   compound                       experimental.target     result
1  CSc1ccc(C(=O)/C=C/c2cc(C)c(OC(C)(C)C(=O)O)c(C)c2)cc1 [GFT-505, Elafibranor, reference compound]  PPAR Gamma (Homo sapiens, UniProt P37231)  50 to 80%

Give me Emax for each of these compounds, listed below.
1. CSc1ccc(C(=O)[C@H]2CNC[C@@H]2CCc2cc(C)c(OC(C)(C)C(=O)O)c(C)c2)cc1 (racemic)
2. CSc1ccc(C(=O)C2CN(C(=O)Oc3ccc(Cl)cc3)CC2c2cc(C)c(OC(C)(C)C(=O)O)c(C)c2)cc1 (single isomer, unassigned)
3. CSc1ccc(C(=O)[C@H]2CN(C)C[C@@H]2CCc2cc(C)c(OC(C)(C)C(=O)O)c(C)c2)cc1 (racemic)
4. COC(=O)N1C[C@@H](C(=O)c2ccc(SC)cc2)[C@H](c2cc(C)c(OC(C)(C)C(=O)O)c(C)c2)C1 (single isomer, unassigned)

Response:
1: < 50%; 2: 80 to 100%; 3: < 50%; 4: < 50%

Give me Emax for each of these compounds, listed below.
1. CSc1ccc(C(=O)[C@H]2CN(C(=O)Oc3ccc(C)nc3)C[C@@H]2Cc2cc(C)c(OC(C)(C)C(=O)O)c(C)c2)cc1 (racemic)
2. COC(=O)N1CC(CCc2cc(C)c(OC(C)(C)C(=O)O)c(C)c2)C(C(=O)c2ccc(SC)cc2)C1 (single isomer, unassigned)

Response:
1. 80 to 100%
2. 50 to 80%
